method-description: Drug uptake in Sprague-Dawley rat brain at 10 mg/kg, ip after 30 mins post dose administered as single dose by LC-MS/MS analysis
Assay type: ADME, organism-based
test-conditions: read-out: Drug uptake
measured-endpoint: concentration at 0.5 h (ng/g)
Numeric answer only, unit ng/g assumed.

Query: Request the reported concentration at 0.5 h associated with O/N=c1\cc(-c2cc3cccn3cn2)oc2ccc(OCCN3CCOCC3)cc12
Result: 5650

----------
Consider the following compounds; for each one, report its concentration at 1 h.
method-description: Drug uptake in Sprague-Dawley rat brain at 10 mg/kg, po after 60 mins post dose administered as single dose by LC-MS/MS analysis
Format: ADME, organism-based
test-conditions: read-out: Drug uptake
Numeric answer only, unit ng/g assumed.

Query: Request the reported concentration at 1 h associated with O/N=c1\cc(-c2cc3cccn3cn2)oc2ccc(OCCCc3cccnc3)cc12
Result: 2.3

Query: Request the reported concentration at 1 h associated with Cc1cc(CCCOc2ccc3oc(-c4cc5cccn5cn4)c/c(=N\O)c3c2)ccn1
Result: 82.5

Query: Request the reported concentration at 1 h associated with O/N=c1\cc(-c2cc3sccc3cn2)oc2ccc(CCCN3CCOCC3)cc12 [FOLIGLURAX]
Result: 785

Query: Request the reported concentration at 1 h associated with CC(=O)N1CCC(Oc2ccc3oc(-c4cc5cccn5cn4)c/c(=N\O)c3c2)CC1
Result: 12.1

Query: Request the reported concentration at 1 h associated with O/N=c1\cc(-c2cc3sccc3cn2)oc2ccc(OCCN3CCOCC3)cc12
Result: 521

Query: Request the reported concentration at 1 h associated with O/N=c1\cc(-c2cc3cccn3cn2)oc2ccc(OCCN3CCOCC3)cc12
Result: 262

Query: Request the reported concentration at 1 h associated with CN(C)C(=O)N1CC(Oc2ccc3oc(-c4cc5cccn5cn4)c/c(=N\O)c3c2)C1
Result: 8.8

Query: Request the reported concentration at 1 h associated with CC(=O)N1CCC(COc2ccc3oc(-c4cc5sccc5cn4)c/c(=N\O)c3c2)CC1
Result: 6.5

Query: Request the reported concentration at 1 h associated with O/N=c1\cc(-c2cc3sccc3cn2)oc2ccc(OCCN3CCC(F)(F)CC3)cc12
Result: 207

Query: Request the reported concentration at 1 h associated with O/N=c1\cc(-c2cc3sccc3cn2)oc2ccc(CCCN3CCC(F)(F)CC3)cc12
Result: 201

Query: Request the reported concentration at 1 h associated with O/N=c1\cc(-c2cc3sccc3cn2)oc2ccc(CCCN3CCC(F)(F)C3)cc12
Result: 197

Query: Request the reported concentration at 1 h associated with CN(C)C1CCN(CCOc2ccc3oc(-c4cc5cccn5cn4)c/c(=N\O)c3c2)CC1
Result: 2.9

Query: Request the reported concentration at 1 h associated with O/N=c1\cc(-c2cc3sccc3cn2)oc2ccc(OC3CN(c4cccnc4)C3)cc12
Result: 26.7

Query: Request the reported concentration at 1 h associated with O/N=c1\cc(-c2cc3sccc3cn2)oc2ccc(O[C@@H]3CCN(c4ccncn4)C3)cc12
Result: 9.5
